The values you see were collected from patent EP4703382A1.

TARGET OR TEST SYSTEM: T1, human PDL1-Fc fusion protein (human)
T1 construct: also called human PDL1-Fc recombinant protein
T1 sequence (chain, as listed by the source limits assumed): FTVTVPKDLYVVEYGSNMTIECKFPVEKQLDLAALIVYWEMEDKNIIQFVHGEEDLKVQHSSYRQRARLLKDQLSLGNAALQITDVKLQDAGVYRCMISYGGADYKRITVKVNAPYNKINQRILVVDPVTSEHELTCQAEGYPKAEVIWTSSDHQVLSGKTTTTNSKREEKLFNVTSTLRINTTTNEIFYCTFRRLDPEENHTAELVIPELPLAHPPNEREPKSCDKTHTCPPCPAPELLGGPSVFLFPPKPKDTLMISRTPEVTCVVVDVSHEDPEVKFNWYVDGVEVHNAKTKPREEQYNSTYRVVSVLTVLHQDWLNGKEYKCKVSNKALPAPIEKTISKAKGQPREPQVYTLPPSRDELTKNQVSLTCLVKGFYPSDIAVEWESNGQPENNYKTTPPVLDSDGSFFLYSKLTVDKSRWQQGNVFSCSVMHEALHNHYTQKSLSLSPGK
EXPERIMENT SUMMARY: ELISA, human PDL1-Fc coated 200 ng/well, anti-His HRP
MEASURE: EC50

See these solved cases before continuing.
Prompt: // query EC50 value for entry PDL1-1v18 (VHH, Humanized PDL1-1, His-tagged) VHH: QVQLVESGGGLVKPGGSLRLSCAASGFTVSNSAVSWARQAPGKGLEWVSLIDSNRNTVYAQSVRGRFTISRDNAKNSVYLQMNSLRAEDTAVYYCAKGIWGSTLTGQGTTVTVSS
Response: 0.0182 µg/mL

Prompt: // query EC50 value for entry PDL1-1v20 (VHH, Humanized PDL1-1, His-tagged) VHH: QVQLVESGGGLVKPGGSLRLSCAASGFTVSNSAVSWARQAPGKGLEWVSLIASNRNTVYAQSVRGRFTISRDNAKNSVYLQMNSLRAEDTAVYYCAKGIWGSTLWGQGTTVTVSS
Response: 0.875 µg/mL

Prompt: // query EC50 value for entry PDL1-1v19 (VHH, Humanized PDL1-1, His-tagged) VHH: QVQLVESGGGLVKPGGSLRLSCAASGFTVSNSAVSWARQAPGKGLEWVSLIDSNRNTVYAQSVRGRFTISRDNAKNSVYLQMNSLRAEDTAVYYCAKGIWGSTLWGQGTQVTVSS
Response: 0.0484 µg/mL

We now examine a further binder.
Prompt: // query EC50 value for entry PDL1-1v13 (VHH, Humanized PDL1-1, His-tagged) VHH: QVQLVESGGGLVKPGGSLTLSCAASGFTVSNSAVSWARQAPGKGLEWVSLIDSNRNTVYAQSVRGRFTISRDNAKNSVYLQMNSLRAEDTAVYYCAKGIWGSTLWGQGTTVTVSS
Response: 0.0461 µg/mL
